Test system: Spodoptera littoralis (Egyptian Cotton Leaf Worm)
assay: Spodoptera littoralis on sprayed cotton leaf discs (Example B8)
Assay type: in vivo
conditionInfo: foliar, 72 h, application rate of 200 ppm, L1 larvae, 3 days after infestation, read-out: control (mortality, anti-feeding effect, growth inhibition)
measuredParameter: mortality at 200 ppm

Look over these answered cases.
{"smilesRepresentation": "CCSc1cc2ccccc2cc1-c1nc2cc(C(F)(F)F)n(CC)c(=O)c2n1C", "val": "≥ 80%"}
{"smilesRepresentation": "CCn1c(C(F)(F)F)cc2nc(-c3cc4nc(C(F)(F)F)n(C)c4cc3S(=O)(=O)CC)n(C)c2c1=O", "val": "≥ 80%"}

Now for a further compound.
Item: CCn1c(C(F)(F)F)cc2nc(-c3cc4ccncc4cc3S(=O)(=O)CC)n(C)c2c1=O | mortality at 200 ppm: ≥ 80%
